# Assay target: Retinoic acid receptor RXR-alpha (Homo sapiens)
# Protocol summary: qHTS assay for small molecule agonists of retinoid X receptor alpha signaling (AID 588544);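 note: 0% = DMSO basal wells and 100% = reference agonist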
# Test parameters: HEK293T RXRa-UAS-bla, beta-lactamase reporter, 18 h; series mostly up to 76.7 µM
# Text: NIH Chemical Genomics Center [NCGC] U.S. Environmental Protection Agency [EPA] National Institutes of Environmental Health Sciences [NIEHS] National Toxicology Program [NTP] NCGC Assay Overview The Retinoid X receptor (RXR), a nuclear hormone receptor is expressed in liver, spleen, placenta, epidermis, central nervous system. […]
Results filed as inconclusive are left out. Active and inactive are the calls of the source. Calls come from the whole dose curve.
Value kind: outcome

> print(dat)
             compound  value.kind  value.measured
1      CCOc1cccc(N)c1     outcome        inactive
2              FB(F)F     outcome        inactive
3    COc1ccc(N)c(C)c1     outcome        inactive
4  C=C(C)C(=O)OCCCCCC     outcome        inactive

## Task # outcome lookup, item "CCC(C)(C)C(=O)O"
## Result inactive

## Task Quick one: outcome for "Nc1ccccc1S(=O)(=O)O" ?
## Result inactive

## Task # input compound: "CC(=O)c1nccs1" ; wanted: its outcome
## Result inactive

## Task I would be grateful if you could share the reported outcome for "O=C1CCCCC1" .
## Result inactive

## Task Could you tell me which outcome is on file for C/C=C1\CC2C=CC1C2 (centres undefined) ?
## Result inactive

## Task Given the compound "CC(C)=CCl" , what is its reported outcome?
## Result inactive

----------
# Protocol summary: qHTS assay for cell viability of HEK293 cells (AID 743288); note: % is set by controls: 0 for no effect and ±100 for the full control effect; nearly all actives have a fitted effect of over 50% in size
# Test parameters: ATP luminescence (CellTiter-Glo), 18 h, stronger effect = lower value
# Source text: National Center for Advancing Translational Sciences [NCATS] NIH Chemical Genomics Center [NCGC] U.S. Environmental Protection Agency [EPA] National Institutes of Environmental Health Sciences [NIEHS] National Toxicology Program [NTP] […] The CellTiter-Glo Luminescent Cell Viability Assay (Promega, Madison, WI) is a homogeneous method to determine the number of viable cells in culture based on quantitation of the ATP present, which signals the presence of metabolically active cells. […]
Inconclusive results are not listed.
The entries below are paired with their reported max response.
Supply the numeric figure in %, leaving out any unit text.

Some compounds with recorded max response:
> print(dat)
                                   compound    value.kind  unit  value.measured
1          O=[N+]([O-])c1cc(C(F)(F)F)ccc1Cl  max response     %          -0.584
2              CC(=O)c1ccc([N+](=O)[O-])cc1  max response     %            5.77
3  CC(C)(C)OCC1CO1 (configuration not stated)  max response     %          -0.898
4                           Cc1ccccc1C(=O)O  max response     %           -7.38
5                             Cc1cccc(C)c1O  max response     %            0.15
6                         COc1ccc(N)c(OC)c1  max response     %            1.67
7                                CNc1ccccc1  max response     %           -6.52
8                               ClC/C=C/CCl  max response     %            4.84

## Task What value of measured max response is listed for "Cc1cccc(Br)c1" ?
## Result 1.57

## Task Endpoint output: max response of "N#Cc1ccccc1" . Value?
## Result 7.56

## Task Sample "OC(CCl)CCl" — what was its max response?
## Result 5.53

## Task Need max response of "FB(F)F" , thanks.
## Result -1.64

Value source: PubChem BioAssay (NCATS)
